Assay: Inhibition of human recombinant Cathepsin L-like protease using Z-FR-AMC as substrate preincubated for 30 mins followed by substrate addition and measured after 1.5 hrs by fluorescence based analysis
Where a SMILES comes first, the peptide text is derived from it. The star is where a group is joined. Nicotinoyl = O=C(c1cccnc1)*; Hexanoyl = CCCCCC(=O)*; Bz = O=C(c1ccccc1)*
Record form. Attribute: IC50. Fill in for each entry.
Numbers only, in nM.

Below: 3 compounds and their reported IC50.
compound | IC50, nM
CC(C)C[C@H](NC(=O)c1ccc[nH]1)C(=O)N[C@H](C=O)Cc1ccccc1 | 37.7
CC(C)C[C@H](NC(=O)c1ccc(Cl)cc1)C(=O)N[C@H](C=O)Cc1ccccc1 | 9.47
O=C[C@H](Cc1ccccc1)NC(=O)[C@H](CC1CCCCC1)NC(=O)/C=C/c1ccccc1 | 53

Could you report IC50 for every entry in the following list?
1. CC(C)C[C@H](NC(=O)c1ccc(Br)cc1)C(=O)N[C@H](C=O)Cc1ccccc1
2. COc1ccc(/C=C/C(=O)N[C@@H](CC(C)C)C(=O)N[C@H](C=O)Cc2ccccc2)cc1
3. COc1ccc(C[C@@H](C=O)NC(=O)[C@H](CC(C)C)NC(=O)/C=C/c2ccccc2)cc1
4. CC(C)C[C@H](NC(=O)/C=C/c1ccccc1)C(=O)N[C@@H](Cc1ccccc1)C(=O)CCl
5. CC(C)C[C@H](NC(=O)/C=C/c1ccccc1F)C(=O)N[C@H](C=O)Cc1ccccc1

Reply:
9.59
55.4
131
9.87
16.5

Could you report IC50 for every entry in the following list?
1. C=Cc1ccc(C(=O)N[C@@H](CC(C)C)C(=O)N[C@H](C=O)Cc2ccccc2)cc1
2. CC(C)C[C@H](NC(=O)/C=C/c1cccc(F)c1)C(=O)N[C@H](C=O)Cc1ccccc1
3. CC(C)C[C@H](NC(=O)c1ccoc1)C(=O)N[C@H](C=O)Cc1ccccc1
4. CC(C)C[C@H](NC(=O)c1ccccc1)C(=O)N[C@H](C=O)Cc1ccccc1 (Bz-Leu-Phe-aldehyde)
5. CC[C@H](C)[C@H](NC(=O)/C=C/c1ccccc1)C(=O)N[C@H](C=O)Cc1ccccc1
6. CC(C)C[C@H](NC(=O)/C=C/c1ccccc1)C(=O)N[C@H](C=O)Cc1ccccc1
7. CC(C)C[C@H](NC(=O)c1cccnc1)C(=O)N[C@H](C=O)Cc1ccccc1 (Nicotinoyl-Leu-Phe-aldehyde)
8. CCCCCC(=O)N[C@@H](CC(C)C)C(=O)N[C@H](C=O)Cc1ccccc1 (Hexanoyl-Leu-Phe-aldehyde)

Reply:
[9.41, 46.2, 24.2, 7.56, 170, 22.6, 14.4, 34.6]

Could you report IC50 for every entry in the following list?
1. CC(C)C[C@H](NC(=O)c1cc[nH]c1)C(=O)N[C@H](C=O)Cc1ccccc1
2. CC(C)C[C@H](NC(=O)/C=C/c1ccc(Cl)cc1)C(=O)N[C@H](C=O)Cc1ccccc1

Reply:
1: 37.3; 2: 23.5

====

Assay: Inhibition of human recombinant Cathepsin L-like protease using Z-FR-AMC as substrate preincubated for 30 mins followed by substrate addition and measured after 1.5 hrs by fluorescence based analysis
Label key: Satisfied means IC50 under 8 nM; Not satisfied means IC50 of 8 nM or more.

Task item: IC50 strictly < 8 nM for this molecule? CCCC[C@H](NC(=O)/C=C/c1ccccc1)C(=O)N[C@H](C=O)Cc1ccccc1
Reply: Not satisfied

Task item: IC50 strictly < 8 nM for this molecule? CC(C)C[C@H](NC(=O)C1CCC(F)(F)CC1)C(=O)N[C@H](C=O)Cc1ccccc1
Reply: Satisfied

Task item: IC50 strictly < 8 nM for this molecule? CC(C)C[C@H](NC(=O)/C=C/c1ccccc1)C(=O)N[C@H](C=O)Cc1ccc(C(F)(F)F)cc1
Reply: Not satisfied
